Origin of the recorded values: the supplement of paper PMC8007513

- Test system: Trichoderma virens ATCC 9645
- experimentalProtocol: growth yield (OD600) with compound + IPBC relative to untreated control; higher = less growth inhibition
- settings: compound concentration: 100 uM; IPBC concentration: 200 ng/ml; 40 h
Structures can show the parent of a compound that is named as a salt. Out of some 1,300 compounds screened, about 130 (10%) showed an effect of 50% or more. Only a selection was taken, and strong results are over-represented in it overall.
Recorded growth yield values for a group of molecules are listed next.

[
  {
    "molecule": "O=C1c2c(O)ccc(O)c2C(=O)c2c(NCCNCCO)ccc(NCCNCCO)c21 [Mitoxantrone dihydrochloride] + CCCCNC(=O)OCC#CI [3-iodo-2-propynyl butylcarbamate (IPBC)]",
    "measurementUnits": "%",
    "growth yield": 1.27
  },
  {
    "molecule": "Cc1[nH]c(=O)c(C#N)cc1-c1ccncc1 [Milrinone] + CCCCNC(=O)OCC#CI [3-iodo-2-propynyl butylcarbamate (IPBC)]",
    "measurementUnits": "%",
    "growth yield": 89.1
  },
  {
    "molecule": "CC[C@@H](CO)NC(=O)[C@@H]1C=C2c3cccc4[nH]cc(c34)C[C@H]2N(C)C1 [Methylergometrine maleate] + CCCCNC(=O)OCC#CI [3-iodo-2-propynyl butylcarbamate (IPBC)]",
    "measurementUnits": "%",
    "growth yield": 79.7
  },
  {
    "molecule": "CCCCOc1ccc(CC(=O)NO)cc1 [Bufexamac] + CCCCNC(=O)OCC#CI [3-iodo-2-propynyl butylcarbamate (IPBC)]",
    "measurementUnits": "%",
    "growth yield": 99.6
  },
  {
    "molecule": "CC(C)C[C@H](CN)CC(=O)O [Pregabalin] + CCCCNC(=O)OCC#CI [3-iodo-2-propynyl butylcarbamate (IPBC)]",
    "measurementUnits": "%",
    "growth yield": 85.3
  },
  {
    "molecule": "O=C(CCCN1CCC(O)(c2ccc(Cl)cc2)CC1)c1ccc(F)cc1 [Haloperidol] + CCCCNC(=O)OCC#CI [3-iodo-2-propynyl butylcarbamate (IPBC)]",
    "measurementUnits": "%",
    "growth yield": 10.2
  },
  {
    "molecule": "O=C1c2c(O)cccc2Cc2cccc(O)c21 [Anthralin] + CCCCNC(=O)OCC#CI [3-iodo-2-propynyl butylcarbamate (IPBC)]",
    "measurementUnits": "%",
    "growth yield": 71.8
  },
  {
    "molecule": "CC[C@H]1OC(=O)[C@H](C)[C@@H](O[C@H]2C[C@@](C)(OC)[C@@H](O)[C@H](C)O2)[C@H](C)[C@@H](O[C@@H]2O[C@H](C)C[C@H](N(C)C)[C@H]2O)[C@](C)(OC)C[C@@H](C)C(=O)[C@H](C)[C@@H](O)[C@]1(C)O [Clarithromycin] + CCCCNC(=O)OCC#CI [3-iodo-2-propynyl butylcarbamate (IPBC)]",
    "measurementUnits": "%",
    "growth yield": 91.7
  },
  {
    "molecule": "CC[C@H]1OC(=O)[C@H](C)[C@@H](O[C@H]2C[C@@](C)(OC)[C@@H](O)[C@H](C)O2)[C@H](C)[C@@H](O[C@@H]2O[C@H](C)C[C@H](N(C)C)[C@H]2O)[C@](C)(O)C[C@@H](C)CN(C)[C@H](C)[C@@H](O)[C@]1(C)O [Azithromycin] + CCCCNC(=O)OCC#CI [3-iodo-2-propynyl butylcarbamate (IPBC)]",
    "measurementUnits": "%",
    "growth yield": 109
  },
  {
    "molecule": "CN(C)CCc1c[nH]c2ccc(C[C@H]3COC(=O)N3)cc12 [Zolmitriptan] + CCCCNC(=O)OCC#CI [3-iodo-2-propynyl butylcarbamate (IPBC)]",
    "measurementUnits": "%",
    "growth yield": 93.2
  },
  {
    "molecule": "C/C(=C(\\CCOP(=O)(O)O)SC(=O)c1ccccc1)N(C=O)Cc1cnc(C)nc1N [Benfotiamine] + CCCCNC(=O)OCC#CI [3-iodo-2-propynyl butylcarbamate (IPBC)]",
    "measurementUnits": "%",
    "growth yield": 89.6
  },
  {
    "molecule": "O=C(CCCN1CCC2(CC1)C(=O)NCN2c1ccccc1)c1ccc(F)cc1 [Spiperone] + CCCCNC(=O)OCC#CI [3-iodo-2-propynyl butylcarbamate (IPBC)]",
    "measurementUnits": "%",
    "growth yield": 77.8
  },
  {
    "molecule": "C[C@@H]1C[C@H]2[C@@H]3C[C@H](F)C4=CC(=O)C=C[C@]4(C)[C@@]3(F)[C@@H](O)C[C@]2(C)[C@@]1(O)C(=O)COC(=O)C(C)(C)C [Flumethasone pivalate] + CCCCNC(=O)OCC#CI [3-iodo-2-propynyl butylcarbamate (IPBC)]",
    "measurementUnits": "%",
    "growth yield": 90.9
  },
  {
    "molecule": "O=C1c2cccc(O)c2C(=O)c2c(O)cccc21 [1,8-Dihydroxyanthraquinone] + CCCCNC(=O)OCC#CI [3-iodo-2-propynyl butylcarbamate (IPBC)]",
    "measurementUnits": "%",
    "growth yield": 55.1
  },
  {
    "molecule": "CCCCC(=O)O[C@H]1CC[C@H]2[C@@H]3CCc4cc(O)ccc4[C@H]3CC[C@]12C [Estradiol Valerate] + CCCCNC(=O)OCC#CI [3-iodo-2-propynyl butylcarbamate (IPBC)]",
    "measurementUnits": "%",
    "growth yield": 92.3
  },
  {
    "molecule": "Oc1ccc(OCc2ccccc2)cc1 [Monobenzone] + CCCCNC(=O)OCC#CI [3-iodo-2-propynyl butylcarbamate (IPBC)]",
    "measurementUnits": "%",
    "growth yield": 50.7
  },
  {
    "molecule": "O=C(CCCN1CCC(O)(c2ccc(Br)cc2)CC1)c1ccc(F)cc1 [Bromperidol] + CCCCNC(=O)OCC#CI [3-iodo-2-propynyl butylcarbamate (IPBC)]",
    "measurementUnits": "%",
    "growth yield": 64.3
  },
  {
    "molecule": "CC[C@H]1OC(=O)[C@H](C)[C@@H](O[C@H]2C[C@@](C)(OC)[C@@H](O)[C@H](C)O2)[C@H](C)[C@@H](O[C@@H]2O[C@H](C)C[C@H](N(C)C)[C@H]2O)[C@](C)(O)C[C@@H](C)C(=O)[C@H](C)[C@@H](O)[C@]1(C)O [Erythromycin] + CCCCNC(=O)OCC#CI [3-iodo-2-propynyl butylcarbamate (IPBC)]",
    "measurementUnits": "%",
    "growth yield": 45.3
  }
]

----------
Below, each entry is listed with its recorded growth yield.
- Test system: Trichoderma virens ATCC 9645
- experimentalProtocol: growth yield (OD600) with compound + IPBC relative to untreated control; higher = less growth inhibition
- settings: compound concentration: 100 uM; IPBC concentration: 200 ng/ml; 72 h
Where a name gives a salt, the structure may show the parent alone. Screen size: about 1,300 compounds; about 130 (10%) showed an effect of 50% or more. For the sample, strong results were picked, then their nearest neighbours and some compounds at random.

[
  {
    "molecule": "CC[N+](C)(CC)CCOC(=O)C1c2ccccc2Oc2ccccc21 [Methantheline bromide] + CCCCNC(=O)OCC#CI [3-iodo-2-propynyl butylcarbamate (IPBC)]",
    "growth yield [%]": 88.5
  },
  {
    "molecule": "Cc1ccc(Cl)c(Nc2ccccc2C(=O)O)c1Cl [Meclofenamic acid sodium salt monohydrate] + CCCCNC(=O)OCC#CI [3-iodo-2-propynyl butylcarbamate (IPBC)]",
    "growth yield [%]": 85.3
  },
  {
    "molecule": "Cc1cc2c(cc1S(N)(=O)=O)S(=O)(=O)CCC2 [Meticrane] + CCCCNC(=O)OCC#CI [3-iodo-2-propynyl butylcarbamate (IPBC)]",
    "growth yield [%]": 91.7
  },
  {
    "molecule": "CCCOc1ccccc1-c1nc2[nH]nnc2c(=O)[nH]1 [Zaprinast] + CCCCNC(=O)OCC#CI [3-iodo-2-propynyl butylcarbamate (IPBC)]",
    "growth yield [%]": 98.7
  },
  {
    "molecule": "O=C(O)COC(=O)Cc1ccccc1Nc1c(Cl)cccc1Cl [Aceclofenac] + CCCCNC(=O)OCC#CI [3-iodo-2-propynyl butylcarbamate (IPBC)]",
    "growth yield [%]": 95.9
  },
  {
    "molecule": "CC(C)(C)NC(=O)[C@@H]1CN(Cc2cccnc2)CCN1C[C@@H](O)C[C@@H](Cc1ccccc1)C(=O)N[C@H]1c2ccccc2C[C@H]1O [Indinavir sulfate] + CCCCNC(=O)OCC#CI [3-iodo-2-propynyl butylcarbamate (IPBC)]",
    "growth yield [%]": 89.8
  },
  {
    "molecule": "C[C@@H](O[C@H]1OCCN(Cc2n[nH]c(=O)[nH]2)[C@H]1c1ccc(F)cc1)c1cc(C(F)(F)F)cc(C(F)(F)F)c1 [Aprepitant] + CCCCNC(=O)OCC#CI [3-iodo-2-propynyl butylcarbamate (IPBC)]",
    "growth yield [%]": 104
  },
  {
    "molecule": "C=C[C@H]1CN2CC[C@H]1C[C@@H]2[C@@H](O)c1ccnc2ccc(OC)cc12 [Quinidine hydrochloride monohydrate] + CCCCNC(=O)OCC#CI [3-iodo-2-propynyl butylcarbamate (IPBC)]",
    "growth yield [%]": 89.8
  },
  {
    "molecule": "NC[C@H]1CC[C@H](C(=O)O)CC1 [Tranexamic acid] + CCCCNC(=O)OCC#CI [3-iodo-2-propynyl butylcarbamate (IPBC)]",
    "growth yield [%]": 104
  },
  {
    "molecule": "C=C1CC[C@@]2(O)[C@H]3Cc4ccc(O)c5c4[C@@]2(CCN3CC2CC2)[C@H]1O5 [Nalmefene hydrochloride] + CCCCNC(=O)OCC#CI [3-iodo-2-propynyl butylcarbamate (IPBC)]",
    "growth yield [%]": 103
  }
]
